Target: BTK (Homo sapiens (Human), UniProt Q06187)
Sequence (Q06187 whole entry): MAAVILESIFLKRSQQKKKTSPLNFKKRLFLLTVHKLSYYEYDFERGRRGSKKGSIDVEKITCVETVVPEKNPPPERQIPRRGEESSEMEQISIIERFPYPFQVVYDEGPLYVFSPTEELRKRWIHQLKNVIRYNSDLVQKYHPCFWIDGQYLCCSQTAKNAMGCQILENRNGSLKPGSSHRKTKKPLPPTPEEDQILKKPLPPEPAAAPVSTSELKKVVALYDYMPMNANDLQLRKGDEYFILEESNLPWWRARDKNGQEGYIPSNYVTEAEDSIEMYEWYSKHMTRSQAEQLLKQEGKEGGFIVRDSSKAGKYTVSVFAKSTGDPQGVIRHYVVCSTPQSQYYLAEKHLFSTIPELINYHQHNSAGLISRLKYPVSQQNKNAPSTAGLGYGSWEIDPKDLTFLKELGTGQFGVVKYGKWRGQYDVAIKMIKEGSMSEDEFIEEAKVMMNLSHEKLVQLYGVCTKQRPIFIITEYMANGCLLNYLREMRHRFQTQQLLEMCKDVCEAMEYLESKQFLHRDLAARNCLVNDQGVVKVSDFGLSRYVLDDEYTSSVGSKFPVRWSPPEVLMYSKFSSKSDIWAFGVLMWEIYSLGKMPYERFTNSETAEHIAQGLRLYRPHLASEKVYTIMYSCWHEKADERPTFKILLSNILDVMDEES
Test: Btk in vitro inhibitory activity (one of Method A TR-FRET, Method B electrophoretic mobility shift, Method C radiometric filter binding)
Assay type: biochemical
Details: Btk (IC50)
pIC50: −log10 of the molar value.
# pIC50 annotations

Consider the reported pIC50 for these molecules:
| Structure | Test System | pIC50 |
| --- | --- | --- |
| CN(C)C(=O)N[C@@H]1CCCN(c2cnc(C(N)=O)c(Nc3ccc(OC4CCCC4)cc3)n2)C1 | BTK (Homo sapiens (Human), UniProt Q06187) | 7.00 to 8.00 |
| CCC(=O)N1CCC(c2ccc(Nc3nc(N4CCC[C@@H](N(C)C(=O)N(C)C)C4)cnc3C(N)=O)cc2)CC1 | BTK (Homo sapiens (Human), UniProt Q06187) | 7.00 to 8.00 |
| CN(C)C(=O)N[C@@H]1CCCN(c2cnc(C(N)=O)c(Nc3ccc([N+](=O)[O-])cc3)n2)C1 | BTK (Homo sapiens (Human), UniProt Q06187) | 7.00 to 8.00 |
| CN(C)C(=O)N[C@@H]1CCCN(c2nnc(C(N)=O)c(Nc3ccc(C(=O)N4CCOCC4)cc3)n2)C1 | BTK (Homo sapiens (Human), UniProt Q06187) | 7.00 to 8.00 |
| CN(C)C(=O)N[C@@H]1CCCN(c2cnc(C(N)=O)c(Nc3ccc(C4CCNCC4)cc3Cl)n2)C1 | BTK (Homo sapiens (Human), UniProt Q06187) | 7.00 to 8.00 |
| COc1ccc(NC(=O)N[C@@H]2CCCN(c3nnc(C(N)=O)c(Nc4ccc(C(=O)N5CCOCC5)cc4)n3)C2)cc1 | BTK (Homo sapiens (Human), UniProt Q06187) | 7.00 to 8.00 |

Moving on to the next molecule.
Any idea what its pIC50 is? The molecule is `CN(C)C(=O)N1CCC(c2ccc(Nc3nc(N4CCC[C@@H](N(C)C(=O)N(C)C)C4)cnc3C(N)=O)cc2)CC1`
7.00 to 8.00
